Entries annotated with measured Kd
- subject.of.test: filamentous actin (F-actin) (rabbit, UniProt P68135 1-377)
- measurement.description: co-sedimentation

Answered examples (2):
binder: CLIP-170 CG2-S3 fragment (H1 203-350) (domain or fragment) GSIKKGERELKIGDRVLVGGTKAGVVRFLGETDFAKGEWCGVELDEPLGKNDGAVAGTRYFQCQPKYGLFAPVHKVTKIGFPSTTPAKAKANAVRRVMATTSASLKRSPSASSLSSMSSVASSVSSRPSRTGLLTETSSRYARKISGT
Kd: 20 µM
//
binder: CLIP-170 CG2 fragment (H1 206-288) (domain or fragment) KKGERELKIGDRVLVGGTKAGVVRFLGETDFAKGEWCGVELDEPLGKNDGAVAGTRYFQCQPKYGLFAPVHKVTKIGFPSTTP
Kd: ~90 µM

Now for a further binder.
Task: Query: Kd; subject: CLIP-170 S2-CG2-S3 fragment (H1 156-350) (domain or fragment) MVSSSPSTPSNIPQKPSQPAAKEPSATPPISNLTKTASESISNLSEAGSIKKGERELKIGDRVLVGGTKAGVVRFLGETDFAKGEWCGVELDEPLGKNDGAVAGTRYFQCQPKYGLFAPVHKVTKIGFPSTTPAKAKANAVRRVMATTSASLKRSPSASSLSSMSSVASSVSSRPSRTGLLTETSSRYARKISGT
Output: ~10 µM

Data origin: paper doi:10.1101/2021.04.27.441644
